Target: cloned human bradykinin B2 receptors (Homo sapiens)
Sequence (P30411 whole entry): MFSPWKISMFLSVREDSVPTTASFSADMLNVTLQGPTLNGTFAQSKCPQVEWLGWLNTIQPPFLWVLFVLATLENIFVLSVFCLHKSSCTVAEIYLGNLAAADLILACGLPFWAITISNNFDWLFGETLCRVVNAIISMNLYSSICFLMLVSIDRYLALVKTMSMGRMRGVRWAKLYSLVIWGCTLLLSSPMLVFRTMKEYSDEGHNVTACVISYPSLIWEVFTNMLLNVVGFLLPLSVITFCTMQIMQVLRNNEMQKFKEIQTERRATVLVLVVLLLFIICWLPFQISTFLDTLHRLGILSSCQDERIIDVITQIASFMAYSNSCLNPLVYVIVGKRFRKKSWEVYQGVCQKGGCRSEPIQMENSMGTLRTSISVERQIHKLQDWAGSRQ
Test: Anti-bradykinin activity on cloned human B2 receptors (CHO cells, Cytosensor microphysiometer)
Format: cell-based
Conditions: cloned human B2 receptors; pD2 for bradykinin is 11; higher numbers indicate higher potency
Exam item: assign label 1 to entries whose HUMAN: pA2 for bradykinin antagonist potency on cloned human B2 receptors is below 10 and label 0 to entries at or above 10. Note that a value of exactly 10 receives label 0.

Decide: HUMAN: pA2 for bradykinin antagonist potency on cloned human B2 receptors of CN(C(=O)C=Cc1c(F)c(F)c(F)c(F)c1F)C(Cc1ccc(OCc2c(Cl)cccc2Cl)cc1)C(=O)NC1CC(C)(C)NC(C)(C)C1 (centres unmarked) strictly below 10?
label 1

Same read-out for `CC1(C)CC(NC(=O)[C@H](Cc2csc3ccccc23)NC(=O)CCCCCCCCCCC(=O)N[C@@H](Cc2csc3ccccc23)C(=O)NC2CC(C)(C)NC(C)(C)C2)CC(C)(C)N1` ?
label 0

Same read-out for CN(C)c1ccc(C=CC(=O)NC(Cc2ccc(OCc3c(Cl)cccc3Cl)cc2)C(=O)NC2CC(C)(C)NC(C)(C)C2)cc1 (centres unmarked) ?
label 1

====

Test system: SCLC strain SHP-77
Assay: Colorimetric tetrazolium (MTT) assay for cell survival, SCLC strain SHP-77
Format: cell-based, human
Settings: SCLC strain SHP-77 in vitro
Protocol: In general, Anti-bradykinin activity was determined by the classical guinea pig ileum assay and on Chinese hamster ovary (CHO) cells expressing cloned human bradykinin B2 receptors. Anti-tumor activity was determined on cultured human cancer cell lines using the standard tetrazolium (MTT) assay. […]
A collection of molecules and their measured MTT: ED50 for killing of SCLC strain SHP-77 in vitro

Sample answers from the record:
1. COC(=O)CCCCCCCCC(=O)Nc1ccc(C=CC(=O)NC(C(=O)NC2CC(C)(C)NC(C)(C)C2)C2Cc3ccccc3C2)cc1 (stereo not drawn) [M586-A]: 15 µM
2. CN(C)CCCNC(=O)[C@H](Cc1ccc2ccccc2c1)NC(=O)C=Cc1ccc(NC(=O)CCCCCCCCCCC(=O)Nc2ccc(C=CC(=O)N[C@@H](Cc3ccc4ccccc4c3)C(=O)NCCCN(C)C)cc2)cc1 [M538]: >80 µM

Shifting focus to the molecule that follows.
MTT: ED50 for killing of SCLC strain SHP-77 in vitro of CC1(C)CC(NC(=O)[C@H](Cc2ccc3ccccc3c2)NC(=O)C=Cc2c(F)c(F)c(F)c(F)c2F)CC(C)(C)N1 [M248] on SCLC strain SHP-77?
3.2 µM

====

Test system: SCLC strain SHP-77
Assay: Colorimetric tetrazolium (MTT) assay for cell survival, SCLC strain SHP-77
Assay type: cell-based, human
Details: Table 1; SHP-77, MTT, 4 days
Param threshold (8 µM) applies to MTT: ED50 for killing of SCLC strain SHP-77 in vitro; output label 1 when value >= threshold, label 0 when value < threshold.

Study these solved cases before continuing.
1) Leu-DTrp-Phe-DTrp-DNMF-Eac2-DArg-Arg-Pro-Hyp-Gly-Igl-Ser-DIgl-Oic-Arg [B10160]: label 1
2) DDD-(DArg-Arg-Eac-Ser-DTic-Oic-Arg)2 [M794]: label 1
3) F5c-DArg-Arg-Pro-Hyp-Gly-Igl-Ser-DIgl-Oic-Arg [B10238]: label 1
4) DArg-Arg-Pro-Hyp-Gly-Igl-Ser-DIgl-Oic-Arg-Eac-Eac-DArg-Arg-Pro-Hyp-Gly-Igl-Ser-DIgl-Oic-Arg [B10088]: label 0
5) F5c-DArg-Arg-Eac-Ser-DF5F-Oic-Arg [M796]: label 1
6) DDD-(DArg-Arg-Eac-Ser-DF5F-PFF-Arg)2 [M944]: label 0

hey, is MTT: ED50 for killing of SCLC strain SHP-77 in vitro for this one >= 8 µM? DArg-Arg-Aud-DIgl-PFF-Arg [M844]
label 1

Same read-out for DDD-(Lys-DArg-Arg-Pro-Hyp-Gly-Igl-Ser-DIgl-Oic-Arg)2 [B10054] ?
label 0

Same read-out for F5c-DArg-Arg-Aud-Ser-DIgl-Oic-Arg [M856] ?
label 1

Same read-out for F5c-DArg-Arg-Aud-Pac-2Nal-Arg [M698] ?
label 0
